# System: Leishmania infantum
# procedureSummary: Antiparasitic activity against Leishmania infantum intracellular amastigotes MHOM/BR/1972/BH46 infected in human THP-1 cells assessed as inhibition of parasitic growth at 50 uM pre-infected for 24 hrs followed by compound addition and measured after 48 hrs relative to control
# Assay type: functional
# testSettings: MHOM/BR/1972/BH46, THP-1
Class boundaries, taken from values of inhibition at 50 µM, are as follows: low (below 20%), middle (20% to below 60%), high (60% or more)

{"columns": ["molecule", "answerLabel"],
 "data": [
  ["Nc1nc(N)c(C(C[N+](=O)[O-])c2ccccc2OCc2ccccc2)c(N)n1 (stereo not given)", "high"],
  ["Nc1nc(N)c(C(C[N+](=O)[O-])c2cccc(Br)c2)c(N)n1 (stereo not given)", "middle"],
  ["Nc1nc(N)c(C(C[N+](=O)[O-])c2ccccc2OCc2ccc(Cl)c(Cl)c2)c(N)n1 (stereo not given)", "low"],
  ["Nc1nc(N)c(C(C[N+](=O)[O-])c2ccc(Cl)c(Cl)c2)c(N)n1 (stereo not given)", "middle"],
  ["COc1cc(C(C[N+](=O)[O-])c2c(N)nc(N)nc2N)ccc1O (stereo not given)", "middle"]
]}

Prompt: Sort into band: Nc1nc(N)c(C(C[N+](=O)[O-])c2csc3ccccc23)c(N)n1 (stereo not given)
Completion: middle

Prompt: Sort into band: COc1ccc(C(C[N+](=O)[O-])c2c(N)nc(N)nc2N)cc1OC (stereo not given)
Completion: high

Prompt: Sort into band: Nc1nc(N)c(C(C[N+](=O)[O-])c2c[nH]c3ccccc23)c(N)n1 (stereo not given)
Completion: low

Prompt: Sort into band: Nc1nc(N)c(C(C[N+](=O)[O-])c2cccc([N+](=O)[O-])c2)c(N)n1 (stereo not given)
Completion: high

Prompt: Sort into band: Nc1nc(N)c(C(C[N+](=O)[O-])c2ccccc2OCc2ccccc2[N+](=O)[O-])c(N)n1 (stereo not given)
Completion: low

Prompt: Sort into band: COc1cccc(OC)c1C(C[N+](=O)[O-])c1c(N)nc(N)nc1N (stereo not given)
Completion: high

Prompt: Sort into band: Nc1nc(N)c(C(C[N+](=O)[O-])c2ccc(OCc3ccc(Cl)c(Cl)c3)cc2)c(N)n1 (stereo not given)
Completion: low

Prompt: Sort into band: Nc1nc(N)c(C(C[N+](=O)[O-])c2ccc3c(c2)OCCO3)c(N)n1 (stereo not given)
Completion: middle

Prompt: Sort into band: Nc1nc(N)c(C(C[N+](=O)[O-])c2cccc3c2OCO3)c(N)n1 (stereo not given)
Completion: middle

* * *

# procedureSummary: Growth inhibition of human A549 cells measured after 48 hrs by celltiter-glo assay
# Assay type: toxicity, cell-based
Reported GI50 at 48 h values follow for various compounds
# number only, unit µM dropped from output

{"columns": ["compound", "endpoint", "u", "measurement"],
 "data": [
  ["Nc1nc(N)c(C(C[N+](=O)[O-])c2csc3ccccc23)c(N)n1 (configuration not stated)", "GI50 at 48 h", "µM", 10.6]
]}

Please find the next compound below.
Prompt: Entry Nc1nc(N)c(C(C[N+](=O)[O-])c2ccccc2OCc2ccc(Cl)c(Cl)c2)c(N)n1 (configuration not stated) has what GI50 at 48 h?
Completion: 10

* * *

# measurementTarget: Pteridine reductase 1 (Leishmania major)
# Sequence (Q01782 whole entry): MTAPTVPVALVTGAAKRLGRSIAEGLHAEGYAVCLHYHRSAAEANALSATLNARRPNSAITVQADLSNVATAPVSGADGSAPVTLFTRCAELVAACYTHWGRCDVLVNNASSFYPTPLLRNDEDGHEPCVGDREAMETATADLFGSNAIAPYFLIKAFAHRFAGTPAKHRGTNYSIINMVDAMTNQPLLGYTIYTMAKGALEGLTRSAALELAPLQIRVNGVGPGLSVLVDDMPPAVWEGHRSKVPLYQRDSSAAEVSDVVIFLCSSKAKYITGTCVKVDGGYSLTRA
# procedureSummary: Inhibition of N-terminal his 6 tagged recombinant Leishmania major PTR1 expressed in Escherichia coli BL21 (DE3) cells preincubated for 10 mins followed by NADPH addition and measured after 10 to 50 mins by multilabel plate reader method
Reported pIC50 values follow for various compounds
Lab note: report pIC50 as minus log10 of the concentration in molar units, number only.

Example entries and their recorded answers appear below.
{"columns": ["compound", "pIC50"],
 "data": [
  ["COc1cc(C(C[N+](=O)[O-])c2c(N)nc(N)nc2N)ccc1O (stereo unspecified)", 4.70],
  ["Nc1nc(N)c(C(C[N+](=O)[O-])c2cccc3c2OCO3)c(N)n1 (stereo unspecified)", 4.32],
  ["Nc1nc(N)c(C(C[N+](=O)[O-])c2ccccc2OCc2cccc(Cl)c2)c(N)n1 (stereo unspecified)", 4.29],
  ["Nc1nc(N)c(C(C[N+](=O)[O-])c2ccco2)c(N)n1 (stereo unspecified)", 4.20],
  ["Nc1nc(N)c(C(C[N+](=O)[O-])c2ccccc2OCc2ccc(Cl)c(Cl)c2)c(N)n1 (stereo unspecified)", 4.34],
  ["Nc1nc(N)c(C(C[N+](=O)[O-])c2ccc3c(c2)CCO3)c(N)n1 (stereo unspecified)", 4.67],
  ["COc1cccc(OC)c1C(C[N+](=O)[O-])c1c(N)nc(N)nc1N (stereo unspecified)", 4.15],
  ["Nc1nc(N)c(C(C[N+](=O)[O-])c2ccc(OCc3ccc(Cl)c(Cl)c3)cc2)c(N)n1 (stereo unspecified)", 4.30],
  ["Nc1nc(N)c(C(C[N+](=O)[O-])c2ccc3c(c2)OCCO3)c(N)n1 (stereo unspecified)", 5.60],
  ["Nc1nc(N)c(C(C[N+](=O)[O-])c2ccc(Cl)c(Cl)c2)c(N)n1 (stereo unspecified)", 4.22]
]}

Prompt: I'm curious: which pIC50 was measured for Nc1nc(N)c(C(C[N+](=O)[O-])c2cccc([N+](=O)[O-])c2)c(N)n1 (stereo unspecified) tested on Pteridine reductase 1 (Leishmania major)?
Completion: 4.20

Prompt: I'm curious: which pIC50 was measured for Nc1nc(N)c(C(C[N+](=O)[O-])c2csc3ccccc23)c(N)n1 (stereo unspecified) tested on Pteridine reductase 1 (Leishmania major)?
Completion: 4.32

Prompt: I'm curious: which pIC50 was measured for COc1ccc(C(C[N+](=O)[O-])c2c(N)nc(N)nc2N)cc1OC (stereo unspecified) tested on Pteridine reductase 1 (Leishmania major)?
Completion: 5.62

Prompt: I'm curious: which pIC50 was measured for Nc1nc(N)c(C(C[N+](=O)[O-])c2c[nH]c3ccccc23)c(N)n1 (stereo unspecified) tested on Pteridine reductase 1 (Leishmania major)?
Completion: 4.86

Prompt: I'm curious: which pIC50 was measured for Nc1nc(N)c(C(C[N+](=O)[O-])c2ccccc2OCc2ccccc2)c(N)n1 (stereo unspecified) tested on Pteridine reductase 1 (Leishmania major)?
Completion: 4.29

* * *

# System: Trypanosoma brucei
# procedureSummary: Antiparasitic activity against blood stream form Trypanosoma brucei assessed as parasitic growth inhibition incubated for 72 hrs by resazurin dye based fluorescence analysis
# Type: functional, organism-based
Reported EC50 values follow for various molecules

{"columns": ["molecule", "EC50"],
 "data": [
  ["Nc1nc(N)c(C(C[N+](=O)[O-])c2ccc3c(c2)CCO3)c(N)n1 (stereo not given)", "4400 nM"]
]}

Prompt: Entry Cc1ccc(C(C[N+](=O)[O-])c2c(N)nc(N)nc2N)s1 (stereo not given) has what EC50?
Completion: 2410 nM

Prompt: Entry Nc1nc(N)c(C(C[N+](=O)[O-])c2ccccc2OCc2ccc(Cl)c(Cl)c2)c(N)n1 (stereo not given) has what EC50?
Completion: 300 nM

Prompt: Entry Nc1nc(N)c(C(C[N+](=O)[O-])c2ccccc2OCc2ccccc2)c(N)n1 (stereo not given) has what EC50?
Completion: 600 nM

Prompt: Entry Nc1nc(N)c(C(C[N+](=O)[O-])c2csc3ccccc23)c(N)n1 (stereo not given) has what EC50?
Completion: 90 nM

Prompt: Entry N=C(N)c1ccc(OCCCCCOc2ccc(C(=N)N)cc2)cc1 has what EC50?
Completion: 4 nM

Prompt: Entry COc1ccc(C(C[N+](=O)[O-])c2c(N)nc(N)nc2N)cc1OC (stereo not given) has what EC50?
Completion: 2330 nM

Prompt: Entry Nc1nc(N)c(C(C[N+](=O)[O-])c2ccc3c(c2)OCO3)c(N)n1 (stereo not given) has what EC50?
Completion: 500 nM

Prompt: Entry Nc1nc(N)c(C(C[N+](=O)[O-])c2cccc3c2OCO3)c(N)n1 (stereo not given) has what EC50?
Completion: 1210 nM

Prompt: Entry Nc1nc(N)c(C(C[N+](=O)[O-])c2ccc(Br)cc2)c(N)n1 (stereo not given) has what EC50?
Completion: 1590 nM

* * *

# procedureSummary: Tmax in BALB/c mouse at 20 mg/kg, po measured upto 24 hrs by LC-MS/MS analysis
# Format: ADME, organism-based
# testSettings: in vivo
Reported Tmax values follow for various molecules
# number only, unit min dropped from output

{"columns": ["molecule", "u", "Tmax"],
 "data": [
  ["Nc1nc(N)c(C(C[N+](=O)[O-])c2ccccc2OCc2ccc(Cl)c(Cl)c2)c(N)n1 (stereo unspecified)", "min", 30],
  ["Nc1nc(N)c(C(C[N+](=O)[O-])c2ccc3c(c2)OCCO3)c(N)n1 (stereo unspecified)", "min", 60],
  ["Nc1nc(N)c(C(C[N+](=O)[O-])c2ccccc2OCc2cccc(Cl)c2)c(N)n1 (stereo unspecified)", "min", 30],
  ["Nc1nc(N)c(C(C[N+](=O)[O-])c2cccc3c2OCO3)c(N)n1 (stereo unspecified)", "min", 30],
  ["Nc1nc(N)c(C(C[N+](=O)[O-])c2csc3ccccc23)c(N)n1 (stereo unspecified)", "min", 60]
]}

Please find the next molecule below.
Prompt: Entry Nc1nc(N)c(C(C[N+](=O)[O-])c2ccc(OCc3ccc(Cl)c(Cl)c3)cc2)c(N)n1 (stereo unspecified) has what Tmax?
Completion: 120
